Molecular target: T1, EsCas13d, nuclease-dead (Eubacterium siraeum, UniProt B0MS50, R295A;H300A;R849A;H854A)
T1 sequence: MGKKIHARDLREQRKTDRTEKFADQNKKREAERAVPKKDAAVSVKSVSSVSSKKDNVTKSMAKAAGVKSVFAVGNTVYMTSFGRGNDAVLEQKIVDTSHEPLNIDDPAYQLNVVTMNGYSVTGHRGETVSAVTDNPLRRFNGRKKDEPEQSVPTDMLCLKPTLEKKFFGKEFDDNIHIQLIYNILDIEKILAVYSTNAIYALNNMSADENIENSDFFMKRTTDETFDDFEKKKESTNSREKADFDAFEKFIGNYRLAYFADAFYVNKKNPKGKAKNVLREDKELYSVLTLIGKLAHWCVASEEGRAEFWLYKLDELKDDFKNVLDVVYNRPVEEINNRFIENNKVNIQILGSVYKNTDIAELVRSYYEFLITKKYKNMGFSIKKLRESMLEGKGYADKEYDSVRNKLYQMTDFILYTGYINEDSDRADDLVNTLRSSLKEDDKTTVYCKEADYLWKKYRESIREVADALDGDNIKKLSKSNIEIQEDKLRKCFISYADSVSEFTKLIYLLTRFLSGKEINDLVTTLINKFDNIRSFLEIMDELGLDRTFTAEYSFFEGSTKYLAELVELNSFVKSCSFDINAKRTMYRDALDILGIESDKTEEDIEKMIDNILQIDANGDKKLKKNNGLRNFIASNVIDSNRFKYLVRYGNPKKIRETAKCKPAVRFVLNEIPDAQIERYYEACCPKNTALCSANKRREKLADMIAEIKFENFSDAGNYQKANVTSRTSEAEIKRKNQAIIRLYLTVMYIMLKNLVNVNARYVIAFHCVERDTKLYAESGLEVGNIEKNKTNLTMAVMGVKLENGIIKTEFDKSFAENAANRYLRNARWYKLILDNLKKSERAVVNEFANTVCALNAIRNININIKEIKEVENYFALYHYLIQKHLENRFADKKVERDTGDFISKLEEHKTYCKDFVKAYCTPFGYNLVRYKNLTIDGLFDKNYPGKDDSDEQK
Assay: crRNA (strand 1, pre-loaded); Mg2+; 40 mM Tris-HCl pH 7.5, 150 mM NaCl, 6 mM MgCl2, 1 mM DTT, 0.1% Tween-20, 0.2 mg/ml BSA; 25 C; 10 min per concentration, then washed
Conditions: tags: His6-TwinStrep-SUMO cleaved; N-terminal SNAP kept (SNAP-Surface 488); label: 3' end held by stalled T7 RNA polymerase
In this section we review reported Kd values for a set of binders.
The reply should contain only the number, in nM.

These solved cases illustrate the format of a correct answer.
binder	quantityMeasured	quantitativeResult
target 1 G12U,G13U (mixed) RNA 1: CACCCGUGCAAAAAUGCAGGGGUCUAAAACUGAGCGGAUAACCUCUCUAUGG RNA 2: GGGAAUGGAUCCACAUCUACGAAUUCGUACCAUAGAGAUUUUAUCCGCUCACCGAGAUCGGAAGAGCACACGU	Kd	7.2
target 2 MT 5'PFS GAU 3'PFS CUA (mixed) RNA 1: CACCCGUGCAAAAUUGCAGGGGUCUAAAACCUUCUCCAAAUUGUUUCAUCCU RNA 2: GGGAAUGGAUCCACAUCUACGAAUUCGAUAGGAUGAAACAAUUUGGAGAAGCUAAGAUCGGAAGAGCACACGU	Kd	11.9
target 1 insU 3' of 17,insU 3' of 7 (mixed) RNA 1: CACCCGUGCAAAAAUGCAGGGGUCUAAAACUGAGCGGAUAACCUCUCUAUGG RNA 2: GGGAAUGGAUCCACAUCUACGAAUUCGUACCAUAGUAGAGGUUAUCUCGCUCACCGAGAUCGGAAGAGCACACGU	Kd	25.4
target 3 U7G,U8G (mixed) RNA 1: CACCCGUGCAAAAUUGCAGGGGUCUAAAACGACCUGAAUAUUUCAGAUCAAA RNA 2: GGGAAUGGAUCCACAUCUACGAAUUCGUUUUUGAUCUGAAAUAGGCAGGUCUGCAGAUCGGAAGAGCACACGU	Kd	48.5
target 2 MT 5'PFS GGC 3'PFS CGA (mixed) RNA 1: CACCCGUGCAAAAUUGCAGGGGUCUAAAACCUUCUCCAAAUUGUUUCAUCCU RNA 2: GGGAAUGGAUCCACAUCUACGAAUUCGGCAGGAUGAAACAAUUUGGAGAAGCGAAGAUCGGAAGAGCACACGU	Kd	11.4

Any idea what Kd was measured for target 1 MT 5'PFS GUG 3'PFS AGC (mixed) RNA 1: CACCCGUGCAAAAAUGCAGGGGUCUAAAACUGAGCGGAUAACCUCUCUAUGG RNA 2: GGGAAUGGAUCCACAUCUACGAAUUCGUGCCAUAGAGAGGUUAUCCGCUCAAGCAGAUCGGAAGAGCACACGU ?
9.45

Any idea what Kd was measured for target 1 insU 3' of 15,insA 3' of 2 (mixed) RNA 1: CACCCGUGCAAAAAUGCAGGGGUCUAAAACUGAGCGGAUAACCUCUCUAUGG RNA 2: GGGAAUGGAUCCACAUCUACGAAUUCGUACCAUAGAGUAGGUUAUCCGCUCAACCGAGAUCGGAAGAGCACACGU ?
10.9
